ASSAY_NAME: PDMS sheets cleaned by Soxhlet with ethyl acetate; batch shaking method with a mixture of all chemicals at several PDMS-mass to water-volume ratios and spiked levels; vials shaken on an orbital shaker at room temperature in the dark, sampled at two equilibration times; PDMS extracts and water quantified by LC-HRMS (Orbitrap); D from the slope of C_PDMS on C_w or their ratio; value is the mean over that pH's experiments (individual experiments in the SI's concentrations table), sd is the table's stdev
CONDITION_PARAMETERS: PDMS (polydimethylsiloxane silicone sheet); phosphate buffer at three target pH values (the paper's methods); pH 11.5
PROPERTY_NAME: log D PDMS/w (apparent distribution ratio at the stated pH)

INSERT INTO measurements (compound, data_value) VALUES
  ('O=C1CC2(CCCCC2)CN1', '1.271 log units; D and K as the pape'),
  ('CCOC(=O)c1ccc(N(C)C)cc1', '2.184 log units; D and K as the pape'),
  ('Cc1cc(=O)oc2cc(N)ccc12', '0.8475 log units; D and K as the pape'),
  ('CN(C)c1ccc(C(=O)c2ccc(N(C)C)cc2)cc1', '1.409 log units; D and K as the pape'),
  ('CCc1ccc(CCOc2ccc(CC3SC(=O)NC3=O)cc2)nc1 (stereo not shown)', '-0.02556 log units; D and K as the pape'),
  ('NC(=O)Nc1ccc(Cl)c(Cl)c1', '0.6515 log units; D and K as the pape'),
  ('CN(C)C(=O)Nc1ccc(Cl)c(Cl)c1', '1.462 log units; D and K as the pape'),
  ('CSc1nc(NC2CC2)nc(NC(C)(C)C)n1', '2.624 log units; D and K as the pape'),
  ('CCCCc1nc(Cl)c(CO)n1Cc1ccc(-c2ccccc2-c2nn[nH]n2)cc1', '-0.67 log units; D and K as the pape'),
  ('CCCCCCCCCCCC(=O)NCC(C)O (stereo not shown)', '3.181 log units; D and K as the pape'),
  ('CCCCCCCCn1sccc1=O', '2.893 log units; D and K as the pape'),
  ('CN(C)S(=O)(=O)c1ccc(N)cc1', '0.01333 log units; D and K as the pape'),
  ('CO/C=C(/C(=O)O)c1ccccc1Oc1cc(Oc2ccccc2C#N)ncn1', '-0.695 log units; D and K as the pape');

---

ASSAY_NAME: PDMS sheets cleaned by Soxhlet with ethyl acetate; batch shaking method with a mixture of all chemicals at several PDMS-mass to water-volume ratios and spiked levels; vials shaken on an orbital shaker at room temperature in the dark, sampled at two equilibration times; PDMS extracts and water quantified by LC-HRMS (Orbitrap); D from the slope of C_PDMS on C_w or their ratio; value is the mean over that pH's experiments (individual experiments in the SI's concentrations table), sd is the table's stdev
CONDITION_PARAMETERS: PDMS (polydimethylsiloxane silicone sheet); phosphate buffer at three target pH values (the paper's methods); pH 11.5
PROPERTY_NAME: log D PDMS/w (apparent distribution ratio at the stated pH)

INSERT INTO results (given_smiles, data_value) VALUES
  ('CCNc1ccc2c(C)cc(=O)oc2c1', '1.825 log units; D and K as the pape'),
  ('O=P(c1ccccc1)(c1ccccc1)c1ccccc1', '2.589 log units; D and K as the pape'),
  ('CC(C)(C)NC(=O)[C@H]1CC[C@H]2[C@@H]3CC[C@H]4NC(=O)C=C[C@]4(C)[C@H]3CC[C@]12C', '2.582 log units; D and K as the pape'),
  ('COC(=O)Nc1nc2ccc(C(=O)c3ccccc3)cc2[nH]1', '1.506 log units; D and K as the pape'),
  ('Cc1ccc2[nH]nnc2c1', '-0.64 log units; D and K as the pape'),
  ('CC(C)(C)Nc1nc(N)nc(Cl)n1', '1.309 log units; D and K as the pape'),
  ('c1ccc2sc(N3CCOCC3)nc2c1', '1.881 log units; D and K as the pape'),
  ('CC(C)(C)c1ccc(S(N)(=O)=O)cc1', '1.073 log units; D and K as the pape'),
  ('c1ccc2c(c1)[nH]c1ccncc12', '2.443 log units; D and K as the pape'),
  ('CC(C)(C#N)c1cc(Cn2cncn2)cc(C(C)(C)C#N)c1', '2.025 log units; D and K as the pape'),
  ('CCN(CC)C(=O)c1cccc(C)c1', '1.633 log units; D and K as the pape'),
  ('CCN(CC)c1ccc2c(C)cc(=O)oc2c1', '2.809 log units; D and K as the pape'),
  ('CNC(=O)/C(=N/OC)c1ccccc1COc1cc(C)ccc1C', '2.397 log units; D and K as the pape');
